Each entry below carries its reported logP.
assay: Lipophilicity, log P of the compound; type: physicochemical; details: octanol/water
recorded-metric: logP

>>> numeric_readout("COc1cc(Br)cc(-c2noc(C3CCCN3C)n2)c1OC (stereo not drawn)")
3.79
>>> numeric_readout("COc1cc(Br)cc(-c2noc(C3CCN(C)CC3)n2)c1OC")
3.86
>>> numeric_readout("COc1cc(Br)cc(-c2noc(C3CCCN(Cc4ccccc4)C3)n2)c1OC (stereo not drawn)")
5.81
>>> numeric_readout("COc1cc(Br)cc(-c2noc(C3CCCCN3Cc3ccccc3)n2)c1OC (stereo not drawn)")
5.81
>>> numeric_readout("COc1cc(Br)cc(-c2noc(C3CCCN3Cc3ccccc3)n2)c1OC (stereo not drawn)")
5.52
>>> numeric_readout("COc1cc(Br)cc(-c2noc(C3CCN(Cc4ccccc4)CC3)n2)c1OC")
5.59
>>> numeric_readout("COc1cc(Br)cc(-c2noc(C3CCCN(C)C3)n2)c1OC (stereo not drawn)")
4.08
>>> numeric_readout("COc1cc(Br)cc(-c2noc(C3CCCCN3C)n2)c1OC (stereo not drawn)")
4.21
